Biological target: CDK2/Cyclin E kinase (Homo sapiens)
Test: CDK2/Cyclin E Flashplate Assay: 96-well format
Settings: streptavidin-coated flashplate, biotinylated-Rb peptide substrate 10 μM, 33PγATP/ATP 1 μM, CDK2/Cyclin E 20 nM, 30 minute at 30° C., 1% DMSO
pIC50: −log10 of the molar value.
# pIC50 per record follows

[
  {
    "molecule": "O=c1[nH]nc(-c2ccncc2)cc1-c1cc2ccc(OCc3ccccc3)cc2[nH]1 [Example 23]",
    "pIC50": 7.32
  },
  {
    "molecule": "Cc1ccc2[nH]c(-c3cc(-c4ccncc4)n[nH]c3=O)cc2c1 [Example 14]",
    "pIC50": 7.59
  },
  {
    "molecule": "CN(C)CCCOc1ccc2[nH]c(-c3cc(-c4ccncc4)n[nH]c3=O)cc2c1 [Example 30]",
    "pIC50": 7.46
  },
  {
    "molecule": "CCN(CC)CCOc1ccc2cc(-c3cc(-c4ccncc4)n[nH]c3=O)[nH]c2c1 [Example 20]",
    "pIC50": 7.70
  },
  {
    "molecule": "O=c1[nH]nc(-c2ccc(O)cc2)cc1-c1cc2ccccc2[nH]1 [Example 2]",
    "pIC50": 7.48
  }
]

Source of measurements: patent US7507734B2
